Hello, the source for this data is PubChem BioAssay AID651965, in case you need it.

target: ATP-dependent Clp protease proteolytic subunit (Bacillus subtilis (strain 168)) (UniProt P80244)
Sequence (P80244 whole entry, looked up): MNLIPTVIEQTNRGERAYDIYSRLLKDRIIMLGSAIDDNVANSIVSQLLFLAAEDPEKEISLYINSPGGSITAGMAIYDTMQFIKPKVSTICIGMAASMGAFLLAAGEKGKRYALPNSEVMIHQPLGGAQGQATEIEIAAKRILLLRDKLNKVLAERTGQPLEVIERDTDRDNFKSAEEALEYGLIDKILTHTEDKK
experiment_summary: qHTS Assay for Activators of ClpP; further: potency means the concentration at half of the fitted maximal effect; further: the source files actives as falling curves though it sought activators and does not explain the sign; nearly all actives have a fitted effect of over 65% in size
assay_conditions: purified B. subtilis ClpP, FRET peptide cleavage, 20 min; series mostly up to 57.5 µM
Description: The Clp protease proteolytic subunit (ClpP) is the core unit of the Clp complex belonging to the peptidase family S14 that hydrolyzes protein into small peptides in the presence of ATP and magnesium. It is ubiquitously expressed and is the major protease in bacteria. […] Unlike common antibiotics that simply interfere with the essential enzyme activity, ADEP binding activates the ClpP core in the absence of the regulatory Clp-ATPases leading to uncontrolled proteolysis and eventually cell death. […]
About 6,400 (1.9%) of roughly 340,000 compounds were called active. Another 4% or so got no clear call; they are omitted. The full list was thinned out, with actives kept by preference.
measurement_kind: Potency

The following compounds have reported results that may help.
| compound | Potency |
| --- | --- |
| CC(C(=O)Nc1ccc(Cl)cc1Cl)N1CC=C(c2ccccc2)CC1 (stereo unspecified) | 28.2 µM (active) |
| COc1ccc(C2C=C(C)Oc3c2c(=O)oc2ccccc32)cc1OC (stereo unspecified) | inactive |
| CC(=O)OC1C2(CC3N4C(=O)C5(CO)SSC4(CC31O)C(=O)N5C)OC(C)C(C)(C)C2=O (stereo unspecified) | inactive |
| O=C(NC1CCCCC1)N1Cc2cc(N3CCCCC3)ccc2-n2nncc2C1 | inactive |
| COc1ccc(NC(=O)N2Cc3ccccc3-n3nncc3C2)cc1 | inactive |

GET /value?item= `O=C(O)/C=C/c1ccc2c(c1)OCO2` &field=Potency returns inactive
